Origin of measurements: patent US20240336686A1

The binders listed here are annotated with their IC50.
target: T1, human SIRPα v2 ECD recombinant protein (human); experiment: competitive ELISA, plate-coated human SIRPα v2 ECD; blocked ligand: mFc tagged human CD47 ECD
T1 construct: extracellular domain; Coated on the ELISA plate
Give a bare numeral; the unit nM is implied.

Solved cases (2 shown):
Anti-SIRPα antibody C42 (antibody, human IgG4, V domains shown, Mouse variable regions; also called 042c) VH: QIQLVQSGPELKKPGETVKISCRASGYTFTTYGMSWVKQAPGKGLRWMGWINTYSGVSTCADDFKGRFAFSLETSATTAYLQIHNLTNEDTATYFCARDPHSYGNSPAWFPYWGQGTLVTVSA VL: DIVMTQSQKFMSTTIRDRVSITCKASQNVGISVAWYQQKSGQSPKLLIYSASNRYTGVPDRFTGSGSGTDFTLTISNMQSEDLADYFCQQYSSYPLTFGSGTKLAIK    4.49
Anti-SIRPα antibody C15 (antibody, V domains shown, Mouse variable regions; tested as purified chimeric antibody; also called 015c) VH: EVQLQQSGVEVVQPGASVKLSCTASGFNIEAYYMHWVKQRTEQGLEWIGRIDPEDGESKYAPKFQGKATMTADTSSSTAYLQLSSLTSDDTAVYYCVRGSYEYWGQGTTLTVSS VL: QIVLTQSPAIMSASPGEKVTLTCSASSSVSSSYLYWYQQKPGSSPKLWIYSTSNLASGVPPRFSGSGSGTSYSLTISSMQAEDAASYFCYQWSSYPYTFGGGTKLEIK    2.45

Now consider the entry below.
stdin: I am curious: what IC50 value has been reported for Anti-SIRPα antibody C59 (antibody, V domains shown, Mouse variable regions; tested as purified chimeric antibody; also called 059c) VH: QVQLQQSGPELVKPGASVKMSCKASGYTFSEYVLSWVKQRTGQGLEWIGEIYPGTITTYYNEKFKGKATLTADKSSNTAYIQLTSLTSEDSAVYFCGRFYDYDGGWFAYWGQGTLLTVSA VL: ENVLTQSPEKMAVSLGQKVTMTCSASSSVSSSDLHWYQQKSGASPKPLIHGTSNLASGVPARFSGSGSGTSYSLTISSVEAEDAATYYCQQWSGYPWTFGGGTNLEIK ?
stdout: 54.1
